Recorded IC50 for compounds tested on Ubiquitin carboxyl-terminal hydrolase 28 (Homo sapiens, UniProt Q96RU2), drawn from a number of studies.

[[record]]
compound = "CCC(c1ccccc1)c1nc(-c2ccc(Cl)nc2)no1 (stereo not drawn)"
measurement = "> 100 µM"

[[record]]
compound = "CCCc1nc2sc3c(NCCc4ccc(OC)c(OC)c4)ncnc3c2c2c1CCCC2"
measurement = "< 1 µM"

[[record]]
compound = "CCCc1nc2sc3c(N(C)CCc4ccc(OC)c(OC)c4)ncnc3c2c2c1CCC2"
measurement = "10 to 100 µM"

[[record]]
compound = "CCCc1nc2sc3c(NCCc4ccc(N(C)C)cc4)ncnc3c2c2c1CCC2"
measurement = "< 1 µM"


Challenge: Can you look up IC50 on Ubiquitin carboxyl-terminal hydrolase 28 (Homo sapiens, UniProt Q96RU2) for CCCc1nc2sc3c(NCCc4cccs4)ncnc3c2c2c1CCC2 ?
Response given: < 1 µM

Challenge: Checklist item: IC50 tested on Ubiquitin carboxyl-terminal hydrolase 28 (Homo sapiens, UniProt Q96RU2), entry O=c1ccc(-c2noc(Cc3ccccc3)n2)c[nH]1 , value?
Response given: 1 to 10 µM

Challenge: Notebook entry, Ubiquitin carboxyl-terminal hydrolase 28 (Homo sapiens, UniProt Q96RU2) assay: IC50 of CCCc1nc2sc3c(NCc4ccc(OC)c(OC)c4)ncnc3c2c2c1CCC2 = ?
Response given: < 1 µM

Challenge: Field: IC50 (Ubiquitin carboxyl-terminal hydrolase 28 (Homo sapiens, UniProt Q96RU2)). Entry: CN(C)S(=O)(=O)c1ccc(OC(F)(F)F)c(NC(=O)Cc2ccc(Cl)c(Cl)c2)c1
Response given: 10 to 100 µM

Challenge: What measured IC50 is associated with C[C@@H]1C[C@@H](NC(=O)/C=C/c2cccc(-c3nc(Cc4cccc(Cl)c4)no3)c2)CN1C#N on Ubiquitin carboxyl-terminal hydrolase 28 (Homo sapiens, UniProt Q96RU2)?
Response given: > 1 µM

====

Values of IC50 for Ubiquitin carboxyl-terminal hydrolase 28 (Homo sapiens, UniProt Q96RU2), collected from a number of published sources:

Known results for molecules:
[[record]]
chemical_structure = "Clc1ccc(-c2noc(Cc3ccc(Cl)c(Cl)c3)n2)cn1"
measurement = "< 1000 nM"

[[record]]
chemical_structure = "CCCc1ccc2c(N)c(C(=O)NCCc3ccc(OC)c(OC)c3)sc2n1"
measurement = "< 1000 nM"

[[record]]
chemical_structure = "CCCc1nc2sc3c(NCCc4ccc(Cl)c(Cl)c4)ncnc3c2c2c1CCC2"
measurement = "10000 to 100000 nM"

[[record]]
chemical_structure = "Cc1oc(Cc2cccc(Cl)c2)nc1-c1ccc(OCc2ncc(C(=O)N(C)C)cn2)cc1"
measurement = "< 50 nM"

[[record]]
chemical_structure = "CN(C)S(=O)(=O)c1ccc(Cl)c(NC(=O)Cc2ccc(Cl)c(Cl)c2)c1"
measurement = "< 1000 nM"


// next entry
Challenge: Request: IC50, test system Ubiquitin carboxyl-terminal hydrolase 28 (Homo sapiens, UniProt Q96RU2), entry Cc1oc(Cc2cccc(Cl)c2)nc1-c1ccc(/C=C/C(=O)N[C@H]2CN[C@H](C)C2)cc1
Response given: 50 to 500 nM
